Measured Ki accompanies every entry in the list below.
target: Quis (quisqualate) receptor; assay: Quisqualate (QUIS) receptor binding assay ([3H]AMPA, synaptic plasma membranes); conditions: 10 nM [3H]AMPA, 100 mM KSCN, pH 7.4, 0-4° C., 10 min; read-out: NMDA receptor binding Ki, Quis
Observable: Ki

Compound	Observable	Value observed
NC(CCCCCP(=O)(O)O)C(=O)O (racemic)	Ki	> 300 µM
N[C@H](CCCCCP(=O)(O)O)C(=O)O	Ki	> 300 µM
Cl.O=C(O)C1Cc2c(cccc2P(=O)(O)O)CN1 (stereo not drawn) [Ex. 2, hydrochloride]	Ki	> 300 µM

---

target: NMDA receptor; assay: NMDA receptor binding assay (NMDA-specific L-[3H]-glutamate binding, synaptic plasma membranes); conditions: 12.5 nM L-[3H]-glutamate, pH 7.4, 0-4° C., 10 min
pKi: −log10 of the molar value.
Reported pKi values for a set of compounds

Compound	pKi
Cc1ccc2c(c1P(=O)(O)O)CC(C(=O)O)NC2 (centres unmarked) [Ex. 16]	5.23
O=C(O)C1Cc2c(cccc2P(=O)(O)O)CN1 (single isomer, unassigned; (+)) [Ex. 13]	6.05
Cl.O=C(O)C1Cc2c(cccc2P(=O)(O)O)CN1 (centres unmarked) [Ex. 2, hydrochloride]	5.80
O=C(O)C1CC2C(CCCC2P(=O)(O)O)CN1 (centres unmarked) [Ex. 7]	5.89
O=C(O)C1Cc2c(cccc2CP(=O)(O)O)CN1 (centres unmarked) [Ex. 17]	4.74
O=C(O)C1CC2C(CCCC2P(=O)(O)O)CN1 (centres unmarked) [Ex. 6]	4.95
O=C(O)C1CC2=C(CCCC2P(=O)(O)O)CN1 (centres unmarked) [Ex. 4]	5.92
O=C(O)C1CC2C(CCCC2P(=O)(O)O)CN1 (centres unmarked) [Ex. 5]	5.80

---

target: NMDA receptor; test: NMDA receptor binding assay (NMDA-specific L-[3H]-glutamate binding, synaptic plasma membranes); details: 12.5 nM L-[3H]-glutamate, pH 7.4, 0-4° C., 10 min
pKi: −log10 of the molar value.
Observable: pKi

Molecule	Value operator	Value observed
N[C@H](CCCCCP(=O)(O)O)C(=O)O	=	5.40
NC(CCCCCP(=O)(O)O)C(=O)O (racemic)	=	5.27
O=C(O)C1CC2=C(CC=CC2P(=O)(O)O)CN1 (centres unmarked)	=	5.52
O=C(O)C1Cc2c(cccc2P(=O)(O)O)CN1 (single isomer, unassigned) [Ex. 14]	=	5.51
CCOC(=O)C1Cc2c(cccc2P(=O)(O)O)CN1 (centres unmarked)	<	4.00
